Source of measurements: ChEMBL document CHEMBL1150477

- MEASUREMENT TARGET: Type-2 angiotensin II receptor (Rattus norvegicus, UniProt P35351)
- Sequence (P35351 whole entry): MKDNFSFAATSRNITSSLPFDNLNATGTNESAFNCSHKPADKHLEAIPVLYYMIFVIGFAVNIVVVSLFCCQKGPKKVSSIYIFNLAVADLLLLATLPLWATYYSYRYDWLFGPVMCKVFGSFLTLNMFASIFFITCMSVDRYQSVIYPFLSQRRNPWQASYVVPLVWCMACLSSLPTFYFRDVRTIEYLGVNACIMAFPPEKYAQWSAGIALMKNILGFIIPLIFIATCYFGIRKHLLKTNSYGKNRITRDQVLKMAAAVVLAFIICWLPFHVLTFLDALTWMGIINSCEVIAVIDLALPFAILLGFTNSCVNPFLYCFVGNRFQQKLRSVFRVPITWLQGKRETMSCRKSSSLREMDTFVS
- TEST METHOD NOTES: […] inhibitory concentration against AT2 receptor of rat adrenal membrane
MEASURED PARAMETER: IC50 (nM)

{"columns": ["SMILES NOTATION", "READOUT UNITS", "OBSERVED VALUE"],
 "data": [
  ["CCCCOC(=O)NS(=O)(=O)c1ccccc1-c1ccc(Cn2c(CCCC)nc3ccc(NC(=O)N(C)C(C)C)cc3c2=O)c(F)c1", "nM", 0.77],
  ["Cc1nc2ccc(NC(=O)N(C)C(C)C)cc2c(=O)n1Cc1ccc(-c2ccccc2S(=O)(=O)NC(=O)OCCC(C)C)cc1F", "nM", 0.72],
  ["CCc1ccc(C(=O)NS(=O)(=O)c2ccccc2-c2ccc(Cn3c(CC)nc4ccc(NC(=O)N(C)C(C)C)cc4c3=O)c(F)c2)cc1", "nM", 0.93]
]}
